Cited source for all entries: ChEMBL document CHEMBL1131898

MEASURED PARAMETER: pIC50
Value format note: pIC50 is -log10 of concentration (mol/L); just state the number.

Incoming: Look up pIC50 with Tyrosine-protein kinase Lck (Homo sapiens) for this compound: `COc1cc(Nc2nccc(-c3ccc(NCCN)nc3)n2)cc(OC)c1OC`
Sequence (P06239 whole entry): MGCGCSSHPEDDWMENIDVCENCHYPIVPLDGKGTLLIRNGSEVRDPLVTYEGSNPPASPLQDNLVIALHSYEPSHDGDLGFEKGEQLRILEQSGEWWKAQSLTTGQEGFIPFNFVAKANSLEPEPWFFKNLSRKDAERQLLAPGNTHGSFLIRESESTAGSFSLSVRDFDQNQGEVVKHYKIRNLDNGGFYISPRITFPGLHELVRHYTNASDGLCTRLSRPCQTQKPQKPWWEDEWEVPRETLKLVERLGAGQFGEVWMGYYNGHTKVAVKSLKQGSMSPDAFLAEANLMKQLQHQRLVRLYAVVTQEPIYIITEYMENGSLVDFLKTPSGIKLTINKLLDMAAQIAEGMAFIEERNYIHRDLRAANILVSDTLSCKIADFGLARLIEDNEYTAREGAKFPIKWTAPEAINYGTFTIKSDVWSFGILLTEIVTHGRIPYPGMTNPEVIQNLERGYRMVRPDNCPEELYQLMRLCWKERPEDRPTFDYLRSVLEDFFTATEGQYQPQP
Outgoing: 5.92

* * *

# TEST TARGET: Tyrosine-protein kinase ZAP-70 (Homo sapiens)
# Sequence (P43403 whole entry): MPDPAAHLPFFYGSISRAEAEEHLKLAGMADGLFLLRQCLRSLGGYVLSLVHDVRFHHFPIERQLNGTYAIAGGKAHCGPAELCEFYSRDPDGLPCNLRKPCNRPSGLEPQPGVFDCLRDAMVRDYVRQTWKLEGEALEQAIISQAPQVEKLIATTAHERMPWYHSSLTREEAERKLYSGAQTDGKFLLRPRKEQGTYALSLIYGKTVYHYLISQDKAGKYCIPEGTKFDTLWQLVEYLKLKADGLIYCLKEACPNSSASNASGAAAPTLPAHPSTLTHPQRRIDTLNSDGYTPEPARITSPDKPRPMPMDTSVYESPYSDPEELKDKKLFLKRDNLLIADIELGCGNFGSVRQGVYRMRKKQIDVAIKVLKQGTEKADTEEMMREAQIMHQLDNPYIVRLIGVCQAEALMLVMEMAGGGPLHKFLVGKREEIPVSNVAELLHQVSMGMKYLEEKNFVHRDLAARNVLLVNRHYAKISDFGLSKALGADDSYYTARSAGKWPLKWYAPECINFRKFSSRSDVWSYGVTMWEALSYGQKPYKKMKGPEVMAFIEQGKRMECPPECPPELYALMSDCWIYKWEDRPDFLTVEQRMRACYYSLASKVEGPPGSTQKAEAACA
MEASURED PARAMETER: IC50 (nM)
Quick reminder: number only, in nM, skip the unit.

Incoming: # returns recorded IC50 (system: Tyrosine-protein kinase ZAP-70 (Homo sapiens)) for `COc1cc(Nc2nccc(-c3ccc(N4CCNCC4)nc3)n2)cc(OC)c1OC`
Outgoing: 54

Incoming: Find IC50 (Tyrosine-protein kinase ZAP-70 (Homo sapiens)) for the entry `COc1cc(Nc2nccc(-c3cccnc3)n2)cc(OC)c1OC`
Outgoing: 1900
